Test system: TMPRSS2 mRNA
Test: TMPRSS2 mRNA levels in LMR20 cells
Type: cell-based, human
Details: LMR20 cells, no AR agonist, ASO 1.0 μM
Oligonucleotides are written 5' to 3', each unit as a sugar letter and its base; * is a phosphorothioate linkage, no mark a phosphodiester; rarer units and linkages stand in square brackets, end groups in braces. Plain capitals give the bases only. e = 2'-O-(2-methoxyethyl) (MOE); l = locked nucleic acid (LNA); k = constrained ethyl (cEt); [5mC] = 5-methylcytosine; d = 2'-deoxy (DNA)
measuredAttribute: TMPRSS2 mRNA levels (% baseline value) of cells without AR agonist treatment
The reply should contain only the number, in % baseline value.

Request: Which TMPRSS2 mRNA levels (% baseline value) of cells without AR agonist treatment is reported for this substance? 549458 (kG*kT*kT*dG*dA*dT*dT*dT*dA*dA*dT*dG*dG*kT*kT*kG) [compound 549458]
Response: 54

Request: Same read-out for 554221 (ACCAAGTTTCTTCAGC; sugars from the 5' end l3 d10 l3, all phosphorothioate, methylation of C not given here) [compound 554221] ?
Response: 77

Request: Can you check 560131 (antisense kT*kT*kG*dA*dT*dT*dT*dA*dA*dT*dG*dG*kT*kT*kG*e[5mC]) [compound 560131] next?
Response: 52

Request: Would you mind doing 569236 (antisense eT*kG*kA*kT*dT*dT*dA*dA*dT*dG*dG*kT*kT*kG*e[5mC]*eA) [compound 569236] as well?
Response: 59

---

Tested on: LMR20 cells
Experiment: Proliferation of MDV3100-resistant LMR20 cells (MTT; with R1881 or DHT)
Type: cell-based, human
Conditions: CSS, ASO 5.0 μM, 5 days
measuredAttribute: Percent inhibition of LMR20 cell proliferation
Mention the unit after the number when you answer.

Request: I am curious: what Percent inhibition of LMR20 cell proliferation value has been reported for TTGATTTAATGGTTGC [ISIS 560131] (MOE and (S)-cEt gapmer chemistry, further chemistry not given here) [targets intron 1] ?
Response: 16%

Request: Check TGATTTAATGGTTGCA [ISIS 569236] (cEt/MOE gapmer chemistry, further chemistry not given here) [targets intron 1] too.
Response: 12%

Request: Follow-up item: GTTGATTTAATGGTTG (all phosphorothioate, sugars by position not given here; further chemistry not fully specified) [ISIS 549458]
Response: 5%

Request: Same again, this time with ACCAAGTTTCTTCAGC (LNA gapmer, phosphorothioate backbone, further chemistry not given here) [ISIS 554221, 3-10-3 LNA gapmer, phosphorothioate backbone, targeted to exon 4 of AR; benchmark, reference compound]
Response: 16%

---

Kindly state Percent inhibition of AR full-length mRNA for each of the entries shown.
Test system: AR mRNA
Assay: AR mRNA in C4-2B cells by free uptake (hAR_LTS00943)
Format: cell-based, human
Settings: free uptake, dose 0.04 μM, 24 hrs
Oligonucleotides are written 5' to 3', each unit as a sugar letter and its base; * is a phosphorothioate linkage, no mark a phosphodiester; rarer units and linkages stand in square brackets, end groups in braces. Plain capitals give the bases only. k = constrained ethyl (cEt); [5mC] = 5-methylcytosine; d = 2'-deoxy (DNA)
Hi! Could you send only the number? It should be in %, unit omitted.

Request: Could you share which Percent inhibition of AR full-length mRNA value was measured for ACCAAGTTTCTTCAGC (LNA gapmer, phosphorothioate backbone, further chemistry not given here) [ISIS 554221, 3-10-3 LNA gapmer, phosphorothioate backbone, targeted to exon 4 of AR; benchmark, reference compound] ?
Response: 0

Request: Likewise for CTAAACTTCCCGTGGC (k[5mC]*kT*kA*dA*dA*d[5mC]*dT*dT*d[5mC]*d[5mC]*d[5mC]*dG*dT*kG*kG*k[5mC]) [ISIS 549434, targets 3'-end of exon 8] ?
Response: 10

Request: Same question for GTTGATTTAATGGTTG (all phosphorothioate, sugars by position not given here; further chemistry not fully specified) [ISIS 549458] please.
Response: 16

Request: Another: AAGTTGTAGTAGTCGC (kA*kA*kG*dT*dT*dG*dT*dA*dG*dT*dA*dG*dT*k[5mC]*kG*k[5mC]) [ISIS 549372, targets exon 1]
Response: 10

---

Test system: AR mRNA
Experiment: Dose-dependent antisense inhibition of human AR in HuVEC cells (electroporation, qRT-PCR RTS3559, IC50)
Type: cell-based
Details: Table 33; 46.9 nM, HuVEC, electroporation, approximately 16 hours
Oligonucleotides are written 5' to 3', each unit as a sugar letter and its base; * is a phosphorothioate linkage, no mark a phosphodiester; rarer units and linkages stand in square brackets, end groups in braces. Plain capitals give the bases only. k = constrained ethyl (cEt); [5mC] = 5-methylcytosine; d = 2'-deoxy (DNA)
Answer each item with its documented percent inhibition of AR, 46.9 nM.
Provide only the numeric value, understood in %.

Request: Notebook entry, AR mRNA assay: percent inhibition of AR, 46.9 nM of 583853 (kT*kG*k[5mC]*dA*dT*dT*d[5mC]*dG*dG*d[5mC]*d[5mC]*dA*dA*kT*kG*kG; antisense) [compound 583853] = ?
Response: 24

Request: Same again, this time with 583919 (kG*kT*kA*dG*dT*d[5mC]*dG*d[5mC]*dG*dA*d[5mC]*dT*d[5mC]*kT*kG*kG; antisense) [compound 583919]
Response: 27

Request: Repeat with 583847 (kA*k[5mC]*kA*dG*d[5mC]*dG*dG*dG*dT*dG*dG*dA*dA*k[5mC]*kT*k[5mC]; antisense) [compound 583847]
Response: 8

Request: For 583892 (k[5mC]*kA*kG*d[5mC]*d[5mC]*dT*dA*dG*dG*d[5mC]*dT*d[5mC]*dT*k[5mC]*kG*k[5mC]; antisense) [compound 583892] then?
Response: 22

Request: Entry 583851 (kG*kT*kG*dG*dG*dA*d[5mC]*dG*d[5mC]*dA*d[5mC]*dA*dG*k[5mC]*kG*kG; antisense) [compound 583851] please
Response: 8

Request: Subsequent entry: 583918 (kA*kG*kT*d[5mC]*dG*d[5mC]*dG*dA*d[5mC]*dT*d[5mC]*dT*dG*kG*kT*kA) [compound 583918]
Response: 16

---

Task for the reader: assign each of the following substances its reported Percent inhibition of C4-2B MR cell proliferation.
System: C4-2B MR cells
Assay: Proliferation of MDV3100-resistant C4-2B cells (CellTiter 96)
Format: cell-based, human
Details: 0.20 μM, 6 days
Oligonucleotides are written 5' to 3', each unit as a sugar letter and its base; * is a phosphorothioate linkage, no mark a phosphodiester; rarer units and linkages stand in square brackets, end groups in braces. Plain capitals give the bases only. e = 2'-O-(2-methoxyethyl) (MOE); l = locked nucleic acid (LNA); k = constrained ethyl (cEt); [5mC] = 5-methylcytosine; d = 2'-deoxy (DNA)
Write the number in % without appending the unit.

Request: // lookup Percent inhibition of C4-2B MR cell proliferation | system=C4-2B MR cells | key= 549372 (kA*kA*kG*dT*dT*dG*dT*dA*dG*dT*dA*dG*dT*k[5mC]*kG*k[5mC]) [compound 549372]
Response: 4

Request: Follow-up item: 347526 (TCTTATGTTTCCGAACCGTT; sugars from the 5' end e5 d10 e5, backbone and methylation of C not given here) [compound 347526]
Response: 22

Request: Thanks! And 549458 (kG*kT*kT*dG*dA*dT*dT*dT*dA*dA*dT*dG*dG*kT*kT*kG) [compound 549458] ?
Response: 16

Request: Also check 549434 (k[5mC]*kT*kA*dA*dA*d[5mC]*dT*dT*d[5mC]*d[5mC]*d[5mC]*dG*dT*kG*kG*k[5mC]) [compound 549434]
Response: 0

Request: Next substance up: 554221 (ACCAAGTTTCTTCAGC; sugars from the 5' end l3 d10 l3, all phosphorothioate, methylation of C not given here) [compound 554221]
Response: 12

---

I'd be grateful if you could share measured TMPRSS2 mRNA levels (% baseline value) after treatment with DHT for these entries.
Tested on: TMPRSS2 mRNA
Experiment: TMPRSS2 mRNA levels in LMR20 cells
Type: cell-based, human
Conditions: LMR20 cells, DHT 10 nM 72 hrs, ASO 1.0 μM
Oligonucleotides are written 5' to 3', each unit as a sugar letter and its base; * is a phosphorothioate linkage, no mark a phosphodiester; rarer units and linkages stand in square brackets, end groups in braces. Plain capitals give the bases only. e = 2'-O-(2-methoxyethyl) (MOE); l = locked nucleic acid (LNA); k = constrained ethyl (cEt); [5mC] = 5-methylcytosine; d = 2'-deoxy (DNA)

Request: For the record 569236 (antisense eT*kG*kA*kT*dT*dT*dA*dA*dT*dG*dG*kT*kT*kG*e[5mC]*eA) [compound 569236] , what value of TMPRSS2 mRNA levels (% baseline value) after treatment with DHT is listed for TMPRSS2 mRNA?
Response: 111 % baseline value

Request: Also, 554221 (ACCAAGTTTCTTCAGC; sugars from the 5' end l3 d10 l3, all phosphorothioate, methylation of C not given here) [compound 554221] please.
Response: 122 % baseline value

Request: Repeat for the following substance: 560131 (antisense kT*kT*kG*dA*dT*dT*dT*dA*dA*dT*dG*dG*kT*kT*kG*e[5mC]) [compound 560131]
Response: 93 % baseline value

Request: Try this substance too: 549458 (kG*kT*kT*dG*dA*dT*dT*dT*dA*dA*dT*dG*dG*kT*kT*kG) [compound 549458]
Response: 106 % baseline value
